- systemName: Monoamine transporters; serotonin & dopamine (Homo sapiens) (UniProt P31645+Q01959)
- Sequence (P31645 whole entry, looked up): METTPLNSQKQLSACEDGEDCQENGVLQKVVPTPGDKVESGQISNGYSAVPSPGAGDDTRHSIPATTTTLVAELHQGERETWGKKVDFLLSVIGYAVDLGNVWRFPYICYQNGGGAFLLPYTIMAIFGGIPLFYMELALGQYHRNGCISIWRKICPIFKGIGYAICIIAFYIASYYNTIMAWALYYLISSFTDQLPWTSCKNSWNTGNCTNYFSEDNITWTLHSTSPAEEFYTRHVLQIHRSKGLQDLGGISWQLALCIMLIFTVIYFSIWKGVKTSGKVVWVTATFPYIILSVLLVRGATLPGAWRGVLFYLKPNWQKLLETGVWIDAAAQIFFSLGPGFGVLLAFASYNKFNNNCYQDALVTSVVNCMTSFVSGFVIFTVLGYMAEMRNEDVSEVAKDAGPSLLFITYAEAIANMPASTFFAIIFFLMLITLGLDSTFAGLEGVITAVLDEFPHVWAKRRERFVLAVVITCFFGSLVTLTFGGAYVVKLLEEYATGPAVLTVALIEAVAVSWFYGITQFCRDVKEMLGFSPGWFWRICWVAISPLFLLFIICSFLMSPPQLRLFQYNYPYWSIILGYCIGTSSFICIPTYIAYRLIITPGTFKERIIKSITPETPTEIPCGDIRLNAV
- Sequence (Q01959 whole entry, looked up): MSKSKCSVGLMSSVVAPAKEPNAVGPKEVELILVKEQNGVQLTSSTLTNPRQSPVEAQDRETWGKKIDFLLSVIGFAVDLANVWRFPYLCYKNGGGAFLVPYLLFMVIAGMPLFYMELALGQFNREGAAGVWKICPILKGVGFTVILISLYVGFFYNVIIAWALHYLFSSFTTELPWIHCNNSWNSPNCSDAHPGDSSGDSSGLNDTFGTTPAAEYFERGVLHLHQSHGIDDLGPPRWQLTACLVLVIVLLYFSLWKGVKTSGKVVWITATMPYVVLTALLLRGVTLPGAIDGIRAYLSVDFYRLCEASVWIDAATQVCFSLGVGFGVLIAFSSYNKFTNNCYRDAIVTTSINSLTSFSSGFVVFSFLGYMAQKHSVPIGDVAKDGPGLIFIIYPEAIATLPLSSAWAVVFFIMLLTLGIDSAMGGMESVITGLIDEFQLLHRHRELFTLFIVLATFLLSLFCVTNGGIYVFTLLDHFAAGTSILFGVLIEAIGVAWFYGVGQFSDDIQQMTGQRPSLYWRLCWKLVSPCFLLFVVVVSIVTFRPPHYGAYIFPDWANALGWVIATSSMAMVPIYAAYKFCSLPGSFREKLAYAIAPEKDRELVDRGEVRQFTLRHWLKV
- methodSummary: Selectivity ratio measured as the IC50 ratio of DAT receptor to that of 5-HT transporter
- protocolConditions: Cercopithecidae
Please note: TRUE applies when Selectivity ratio is 2 or greater, and FALSE applies otherwise.

Check out these entries, answers already filled in.
[[record]]
molecule = "COC(=O)C1C2CCC(CC1c1ccc(Cl)c(Cl)c1)O2 (stereo in doubt; form 1)"
class = "FALSE"

[[record]]
molecule = "COC(=O)C1C2CCC(CC1c1ccc(Cl)c(Cl)c1)O2 (stereo in doubt; form 4)"
class = "FALSE"

[[record]]
molecule = "COC(=O)C1C2CCC(CC1c1ccc(F)cc1)O2 (stereo in doubt; 6b (O-895))"
class = "TRUE"


[Q] API: above_or_equal(metric=Selectivity ratio, cutoff=2) for item COC(=O)C1C2CCC(CC1c1ccc(F)cc1)O2 (stereo in doubt; 7b (O-899))
[A] TRUE

[Q] Field entry: COC(=O)C1C2CCC(CC1c1ccc(I)cc1)O2 (stereo in doubt)
[A] FALSE

[Q] Also, COC(=O)C1C2CCC(CC1c1ccc(Br)cc1)O2 (stereo in doubt; form 1) please.
[A] FALSE
